Each item that follows carries a reported cell viability.
tested on: WHIM2 (cells of a triple-negative basal-like breast cancer xenograft); assay: cell viability (% of vehicle); higher = less cytotoxic; details: 10 µM; 72 h;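 also: PDX cells carrying CMV promoter-driven luciferase, viability read as total photon flux per second by IVIS imaging following D-luciferin, vehicle control 0.1% DMSO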
Provide a numeric answer; units are not to be included.

• CC12CC(=CO)C(=O)CC1CCC1C2CCC2(C)C1CCC2(C)O (configuration not stated) = 90.9
• CCC(C(N)=O)N1CCCC1=O (configuration not stated) = 91.7
• CN(C)C1C(=O)C(C(N)=O)=C(O)C2(O)C(=O)C3=C(O)c4c(O)cccc4C(C)(O)C3CC12.Cl (configuration not stated) [Tetracycline Hydrochloride] = 77.1
• CC(=Cc1csc(C)n1)C1CC2OC2(C)CCCC(C)C(O)C(C)C(=O)C(C)(C)C(O)CC(=O)O1 (configuration not stated) [Epothilone B (EPO906, Patupilone)] = 75.9

Asked: Hi! What's the reported cell viability for `CN1[C@@H]2C[C@@H](O)C[C@H]1[C@@H]1O[C@@H]12` on WHIM2?
Given back: 112

Asked: WHIM2 / cell viability / CCCC[N+]1(C)[C@@H]2C[C@@H](OC(=O)[C@H](CO)c3ccccc3)C[C@H]1[C@@H]1O[C@@H]12 (some centres not stated) [Scopolamine butylbromide] : value?
Given back: 137

Asked: Provide value of cell viability for this record tested with WHIM2: C[N+]1(C)CCCC(OC(=O)C(O)(c2ccccc2)c2ccccc2)C1.[Br-] (configuration not stated) [Mepenzolate Bromide]
Given back: 98.1

Asked: For the record `O=S(=O)(F)Cc1ccccc1` , what value of cell viability is listed for WHIM2?
Given back: 104

Asked: What reported cell viability corresponds to `CC(C)OC(=O)[C@H](C)N[P@](=O)(CO[C@H](C)Cn1cnc2c(N)ncnc21)Oc1ccccc1` on WHIM2?
Given back: 117

Asked: WHIM2 / cell viability / `CCC1=C[C@H]2CN3CCc4c([nH]c5ccccc45)[C@@](C(=O)OC)(C2)[C@@H]13` : value?
Given back: 85.5

Asked: Query the reported cell viability for WHIM2; item: CCOC(=O)c1cncn1C(C)c1ccccc1.Cl (configuration not stated) [Etomidate hydrochloride]
Given back: 145

Asked: Notebook: pull reported cell viability for WHIM2, entry O=P1(N(CCCl)CCCl)NCCCO1 (configuration not stated) [Cyclophosphamide]
Given back: 79.9

Asked: State its cell viability on WHIM2: CCOC(=O)c1cncn1C(C)c1ccccc1 (configuration not stated) [Etomidate]
Given back: 81.8

Asked: Identify the measured cell viability of C=C1CC2C(CCC3(C)C(=O)CCC23)C2(C)C=CC(=O)C=C12 (configuration not stated) for WHIM2.
Given back: 128

* * *

tested on: WHIM30 (cells of a triple-negative basal-like breast cancer xenograft); assay: cell viability (% of vehicle); higher = less cytotoxic; conditions: 10 µM; 72 h
Measured cell viability of individual entries
Simply state the number, no unit and no words.

• O=c1cccc2n1C[C@@H]1CNC[C@H]2C1 = 81.4
• CCNCC.O=C(O)Cc1ccccc1Nc1c(Cl)cccc1Cl = 94
• CCC1(c2cccc(O)c2)CCCCN(C)C1.Cl (centres undefined) [Meptazinol HCl] = 181

// next item, cell viability requested
Asked: What value of cell viability has been reported for the following molecule? NC(Cc1ccc(N(CCCl)CCCl)cc1)C(=O)O (centres undefined)
Given back: 124

* * *

system: HCI09 (cells of a triple-negative luminal androgen receptor type breast cancer xenograft); experiment: cell viability (% of vehicle); higher = less cytotoxic; conditions: 10 µM; 72 h
Values of cell viability strictly less than 100 map to TRUE, and values of at least 100 map to FALSE.

Example cases with answers are listed next.
- NC(Cc1ccc(N(CCCl)CCCl)cc1)C(=O)O (centres undefined): TRUE
- Cc1cc(C(C#N)c2ccc(Cl)cc2)c(Cl)cc1NC(=O)c1cc(I)cc(I)c1[O-].[Na+] (centres undefined) [Closantel Sodium]: TRUE
- CC(C)NCC(O)c1ccccc1Cl.Cl (centres undefined) [Clorprenaline HCL]: TRUE
- CN1C2CCC1CC(OC(=O)C(CO)c1ccccc1)C2 (centres undefined): FALSE

Asked: Please check: cell viability for `COc1ccc(C(=O)N2CCCC2=O)cc1` , strictly under 100 or not?
Given back: FALSE

Asked: Criterion: cell viability strictly below 100. Is it met by O=P1(NCCCl)OCCCN1CCCl (centres undefined) [Ifosfamide] ?
Given back: TRUE

Asked: Just wondering, is cell viability of CC(=O)OC1CC2CCC3C(CCC4(C)C3CC([N+]3(C)CCCCC3)C4OC(C)=O)C2(C)CC1[N+]1(C)CCCCC1.[Br-].[Br-] (centres undefined) [Pancuronium dibromide] below 100?
Given back: FALSE

Asked: Is it true that cell viability reported for C[N+](C)(C)CC(=O)O.[Cl-] [Betaine hydrochloride] is less than 100?
Given back: TRUE

Asked: Strictly below 100: is that where cell viability of CC12CCC3C(CC=C4CC(O)CCC43C)C1CCC2=O (centres undefined) [Dehydroepiandrosterone (DHEA)] sits?
Given back: TRUE

Asked: Confirm or reject: cell viability of CN(C)C(=O)C(CCN1CCC(O)(c2ccc(Cl)cc2)CC1)(c1ccccc1)c1ccccc1.Cl [Loperamide HCl] lies strictly below 100
Given back: TRUE

Asked: Regarding `O=S(=O)(F)Cc1ccccc1` , kindly confirm whether its cell viability is beneath 100.
Given back: TRUE

Asked: # strict comparison: is reported cell viability < 100? input = CC(C)c1c(CN(C)C(C)Cc2ccccc2)n(C)n(-c2ccccc2)c1=O (centres undefined)
Given back: TRUE

* * *

tested on: HCI09; assay: cell viability (% of vehicle); higher = less cytotoxic; conditions: 10 µM; 72 h
cell viability overview
// return just the number, without any unit appended

Recorded cell viability, per entry:
- Cc1cccc(Cc2cnc[nH]2)c1C.Cl [Detomidine HCl]: 96.9
- CNCC(=O)c1ccc(O)c(O)c1.Cl [Adrenalone HCl]: 104
- O=C(O)c1nn(Cc2ccc(Cl)cc2Cl)c2ccccc12: 92.9
- NCCC(O)(P(=O)([O-])O)P(=O)([O-])O.[Na+].[Na+] [Pamidronate Disodium]: 86.9
- Cc1cccc(C)c1NC(=O)CN1CCCC1=O: 99.9
- CC(=Cc1csc(C)n1)C1CC2OC2(C)CCCC(C)C(O)C(C)C(=O)C(C)(C)C(O)CC(=O)O1 (stereo unspecified) [Epothilone B (EPO906, Patupilone)]: 91.4

Asked: API: value(readout= cell viability, system= HCI09, query= COc1cc2c(cc1OC)C13CCN4CC5=CCOC6CC(=O)N2C1C6C5CC43 (stereo unspecified) )
Given back: 98.2

Asked: Identify the measured cell viability of Cl.O=C1CCC2(O)C3Cc4ccc(O)c5c4C2(CCN3CC2CC2)C1O5 (stereo unspecified) [Naltrexone HCl] for HCI09.
Given back: 108

Asked: Query for HCI09: what cell viability does the record show for CN(C)C(=O)Oc1ccc[n+](C)c1.[Br-] [Pyridostigmine Bromide] ?
Given back: 103

Asked: Provide the documented cell viability with HCI09 as the system for `O=c1cccc2n1C[C@@H]1CNC[C@H]2C1`
Given back: 97.8

Asked: Item CN(C)C1C(=O)C(C(N)=O)=C(O)C2(O)C(=O)C3=C(O)c4c(O)cccc4C(C)(O)C3C(O)C12.O.O (stereo unspecified) [Oxytetracycline Dihydrate] with HCI09 - cell viability?
Given back: 111

* * *

test system: HCI09; assay: cell viability (% of vehicle); higher = less cytotoxic; details: 10 µM; 72 h
Counter-ions that a name gives are not always drawn.
Entries whose cell viability is below 90 take Fulfilled; entries at or above 90 take Not fulfilled.

* c1ccc2c(c1)sc1ccccc12 | Fulfilled
* Oc1cc(Cl)ccc1Oc1ccc(Cl)cc1Cl | Fulfilled
* Cc1c(N)nc(C(CC(N)=O)NCC(N)C(N)=O)nc1C(=O)NC(C(=O)NC(C)C(O)C(C)C(=O)NC(C(=O)NCCc1nc(-c2nc(C(=O)NCCC[S+](C)C)cs2)cs1)C(C)O)C(O[C@@H]1O[C@@H](CO)[C@@H](O)[C@H](O)[C@@H]1O[C@H]1O[C@H](CO)[C@@H](O)[C@H](OC(N)=O)[C@@H]1O)c1cnc[nH]1 (stereo partly specified) [Bleomycin Sulfate] | Fulfilled

Asked: Please check: cell viability for Br.COC(=O)C1=CCCN(C)C1 [Arecoline hydrobromide] , strictly under 90 or not?
Given back: Not fulfilled

* * *

system: UCD52 (cells of a triple-negative basal-like breast cancer xenograft); test: cell viability (% of vehicle); higher = less cytotoxic; details: 10 µM; 72 h
PARAMETER: cell viability
Give the figure only, with no unit attached.

Examples from the recorded data:
- CC(C)CC(CN)CC(=O)O (stereo not given): 78.2
- CC1CNCCc2ccc(Cl)cc21.Cl (stereo not given) [Lorcaserin HCl]: 90.3
- Cc1cccc(C(C)c2cnc[nH]2)c1C.Cl (stereo not given) [Dexmedetomidine HCl]: 86.7
- CC(C)OC(=O)[C@H](C)N[P@](=O)(CO[C@H](C)Cn1cnc2c(N)ncnc21)Oc1ccccc1: 104
- C[C@]12CC[C@H]3[C@@H](CC[C@@]45O[C@@H]4C(O)=C(C#N)C[C@]35C)[C@@H]1CC[C@@H]2O: 115

Asked: Could you share what cell viability was measured for Cl.NCC1(CC(=O)O)CCCCC1 [Gabapentin HCl] , tested on UCD52?
Given back: 80.5

Asked: Missing value: cell viability, UCD52, entry CC(=O)OC1CC2CCC3C(CCC4(C)C3CC([N+]3(C)CCCCC3)C4OC(C)=O)C2(C)CC1[N+]1(C)CCCCC1.[Br-].[Br-] (stereo not given) [Pancuronium dibromide] . Fill in?
Given back: 79.4

Asked: Request body: readout cell viability, system UCD52, query CNCC(=O)c1ccc(O)c(O)c1.Cl [Adrenalone HCl] . Return the value.
Given back: 99.9
